- Test system: barnyardgrass (Echinochloa crus-galli)
- PROCEDURE_DETAILS: Test C preemergence
- Assay type: in vivo
- MEASUREMENT_PARAMETERS: Echinochloa crus-galli, pre-emergence; 31 g ai/ha, preemergence; scale 0 to 100; read-out: Plant response rating, Barnyardgrass
For each record, check the reported pest or weed control at 31 g/ha: if it is below 80% write Y, else write N.

These recorded examples may help you get a feel for the data.
{"SMILES_ENTRY": "N#Cc1cccc(Oc2ncc(Cl)cn2)c1Oc1cnc(Cl)cn1", "TARGET_ENTITY": "barnyardgrass (Echinochloa crus-galli)", "CLASSIFICATION": "N"}
{"SMILES_ENTRY": "Clc1cnc(Oc2cccc(Br)c2Oc2ncc(Cl)cn2)nc1", "TARGET_ENTITY": "barnyardgrass (Echinochloa crus-galli)", "CLASSIFICATION": "Y"}
{"SMILES_ENTRY": "N#Cc1cccc(Oc2ncc(Cl)cn2)c1Oc1ncc(Br)cn1", "TARGET_ENTITY": "barnyardgrass (Echinochloa crus-galli)", "CLASSIFICATION": "Y"}
{"SMILES_ENTRY": "Fc1cnc(Oc2c(Cl)cccc2Oc2ncc(Cl)cn2)nc1", "TARGET_ENTITY": "barnyardgrass (Echinochloa crus-galli)", "CLASSIFICATION": "Y"}

Next compound, please.
Does this compound meet the criterion pest or weed control at 31 g/ha < 80%? `N#Cc1cccc(Oc2ncc(C(F)(F)F)cn2)c1Oc1ncc(Cl)cn1`
N

----------
- Tested on: oilseed rape (Brassica napus)
- PROCEDURE_DETAILS: Test C postemergence
- Format: in vivo
- MEASUREMENT_PARAMETERS: Brassica napus, post-emergence; Postemergence, 125 g ai/ha, scale 0 to 100; read-out: Plant response rating, Oilseed Rape
ENDPOINT_NAME: plant injury at 125 g/ha (%)
# output: bare number, implied unit %

Worked cases, plant injury at 125 g/ha given:
{"COMPOUND": "N#Cc1cccc(Oc2ncc(Cl)cn2)c1Oc1ncc(Br)cn1 [Compound 4]", "TARGET_ENTITY": "oilseed rape (Brassica napus)", "VALUE": 60}
{"COMPOUND": "Fc1cnc(Oc2c(Cl)cccc2Oc2ncc(Cl)cn2)nc1 [Compound 18]", "TARGET_ENTITY": "oilseed rape (Brassica napus)", "VALUE": 50}
{"COMPOUND": "N#Cc1cccc(Oc2ncc(Cl)cn2)c1Oc1cnc(Cl)cn1 [Compound 32]", "TARGET_ENTITY": "oilseed rape (Brassica napus)", "VALUE": 85}
{"COMPOUND": "Fc1ccc(F)c(Oc2ncc(Cl)cn2)c1Oc1ncc(Cl)cn1 [Compound 34]", "TARGET_ENTITY": "oilseed rape (Brassica napus)", "VALUE": 70}

With those in mind, consider the next compound.
Report measured plant injury at 125 g/ha; entry is Fc1cccc(Oc2ncc(C(F)(F)F)cn2)c1Oc1ncc(Cl)cn1 [Compound 42]
85

----------
- Test system: ragweed (common ragweed, Ambrosia elatior)
- PROCEDURE_DETAILS: Test C preemergence
- Type: in vivo
- MEASUREMENT_PARAMETERS: Ambrosia artemisiifolia, pre-emergence, 336 h; 62 g ai/ha, preemergence; scale 0 to 100; read-out: Plant response rating, Ragweed
ENDPOINT_NAME: pest or weed control at 62 g/ha (%)
# output: bare number, implied unit %

Worked cases, pest or weed control at 62 g/ha given:
{"SMILES_ENTRY": "Fc1cccc(Oc2ncc(Cl)cn2)c1Oc1ncc(Cl)cn1", "pest or weed control at 62 g/ha / %": 85}
{"SMILES_ENTRY": "Clc1cnc(Oc2cccc(Br)c2Oc2ncc(Cl)cn2)nc1", "pest or weed control at 62 g/ha / %": 55}
{"SMILES_ENTRY": "N#Cc1cccc(Oc2ncc(Cl)cn2)c1Oc1ccc(Br)cn1", "pest or weed control at 62 g/ha / %": 50}
{"SMILES_ENTRY": "Fc1cccc(Oc2ncc(Cl)cn2)c1Oc1ncc(Br)cn1", "pest or weed control at 62 g/ha / %": 60}

Report measured pest or weed control at 62 g/ha; entry is `FC(F)c1cccc(Oc2ncc(Cl)cn2)c1Oc1ncc(Cl)cn1`
35

Report measured pest or weed control at 62 g/ha; entry is `Fc1cnc(Oc2c(Br)cccc2Oc2ncc(Cl)cn2)nc1`
85

Report measured pest or weed control at 62 g/ha; entry is `Fc1cccc(Oc2ncc(C(F)(F)F)cn2)c1Oc1ncc(Cl)cn1`
98
